Target: T1, human tissue factor pathway inhibitor (TFPI) (human, UniProt P10646 29-304, limits assumed)
T1 construct: bought; also called hTFPI; human TFPI
T1 sequence (looked up): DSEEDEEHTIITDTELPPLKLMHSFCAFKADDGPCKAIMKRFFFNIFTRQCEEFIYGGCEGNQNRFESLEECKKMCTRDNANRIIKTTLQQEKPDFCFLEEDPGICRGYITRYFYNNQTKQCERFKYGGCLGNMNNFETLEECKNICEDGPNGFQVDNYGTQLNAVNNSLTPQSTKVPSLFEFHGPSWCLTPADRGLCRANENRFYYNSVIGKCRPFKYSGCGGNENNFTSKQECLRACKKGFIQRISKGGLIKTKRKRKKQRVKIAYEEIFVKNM
Test: competitive ELISA
readout-kind: variant/HC_D62R (ratio)
Express it in ratio; write the number only.

binder	variant/HC_D62R (ratio)
4B7 HC N32D+D62R+Y112D/LC S32R+D33F+N35I+G56V+D97T (Fab, V domains shown) VH: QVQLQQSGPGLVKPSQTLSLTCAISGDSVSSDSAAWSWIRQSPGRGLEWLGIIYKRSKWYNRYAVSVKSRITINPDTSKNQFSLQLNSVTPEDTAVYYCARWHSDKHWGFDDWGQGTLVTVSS VL: DIVMTQSPLSLPVTPGEPASISCRSSQSLVFRFGITYLNWYLQKPGQSPQLLIYKVSNRASGVPDRFSGSGSGTDFTLKISRVEAEDVGVYYCQQYTSYPLTFGQGTKVEIKR	12.1
4B7 HC N32D+D62Q+Y112D/LC F31I+D33F+N35I+D97T (Fab, V domains shown) VH: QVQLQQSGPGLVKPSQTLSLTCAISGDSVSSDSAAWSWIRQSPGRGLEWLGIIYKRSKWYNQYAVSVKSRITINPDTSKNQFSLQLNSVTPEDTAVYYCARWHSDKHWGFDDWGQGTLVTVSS VL: DIVMTQSPLSLPVTPGEPASISCRSSQSLVISFGITYLNWYLQKPGQSPQLLIYKGSNRASGVPDRFSGSGSGTDFTLKISRVEAEDVGVYYCQQYTSYPLTFGQGTKVEIKR	14.4
4B7 HC N32D+D62R+H107M+Y112D/LC F31I+S32R+D33F+N35I+D97T (Fab, V domains shown) VH: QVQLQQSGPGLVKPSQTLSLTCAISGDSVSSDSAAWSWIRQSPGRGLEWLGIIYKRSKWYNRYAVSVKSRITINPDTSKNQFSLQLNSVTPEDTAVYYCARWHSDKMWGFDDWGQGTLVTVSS VL: DIVMTQSPLSLPVTPGEPASISCRSSQSLVIRFGITYLNWYLQKPGQSPQLLIYKGSNRASGVPDRFSGSGSGTDFTLKISRVEAEDVGVYYCQQYTSYPLTFGQGTKVEIKR	28.7

variant/HC_D62R measured on 4B7 HC Q1E+N32D+D62R+Y112D/LC S32R+D33F+N35I+D97T (Fab, V domains shown) VH: EVQLQQSGPGLVKPSQTLSLTCAISGDSVSSDSAAWSWIRQSPGRGLEWLGIIYKRSKWYNRYAVSVKSRITINPDTSKNQFSLQLNSVTPEDTAVYYCARWHSDKHWGFDDWGQGTLVTVSS VL: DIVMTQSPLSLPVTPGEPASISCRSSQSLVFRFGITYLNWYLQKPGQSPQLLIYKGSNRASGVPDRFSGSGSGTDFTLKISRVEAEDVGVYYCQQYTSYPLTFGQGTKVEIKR = 26.7

variant/HC_D62R measured on 4B7 HC N32D+D62R+Y112D/LC V30L+S32R+D33F+N35I+D97T (Fab, V domains shown) VH: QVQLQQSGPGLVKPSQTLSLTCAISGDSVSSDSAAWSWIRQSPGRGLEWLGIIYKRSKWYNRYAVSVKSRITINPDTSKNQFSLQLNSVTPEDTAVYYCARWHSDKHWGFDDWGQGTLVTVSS VL: DIVMTQSPLSLPVTPGEPASISCRSSQSLLFRFGITYLNWYLQKPGQSPQLLIYKGSNRASGVPDRFSGSGSGTDFTLKISRVEAEDVGVYYCQQYTSYPLTFGQGTKVEIKR = 26.1
